system: HIV; assay: Table 1 IC50 of the examples (assay method not given; patent concerns inhibiting HIV replication); type: cell-based; conditions: Human immunodeficiency virus 1
Hi! Just check whether IC50 is below 10 nM. Below gives class 1, equal or above gives class 0.

I wonder whether Cc1ccc(-c2c3c(cc(C)c2C(OC(C)(C)C)C(=O)O)N(C2CCCCC2)CC3)cc1 (stereo not drawn) [Example 4] has IC50 below 10 nM. Can you tell? class 0

Please determine if Cc1cc2c(c(-c3cc(F)c4c(c3C)CCCO4)c1[C@H](OC(C)(C)C)C(=O)O)CCN2C(=O)c1cc2ccccc2[nH]1 (atropisomer, axis not shown) [Example 129] is below 10 nM in terms of IC50. class 0

A record lists Cc1cc2c(c(-c3cc(F)c4c(c3C)CCCO4)c1[C@H](OC(C)(C)C)C(=O)O)CCN2C(=O)c1cccc(C(F)(F)F)c1 (atropisomer, axis not shown) [Example 93] . Is its IC50 below 10 nM? class 0

API: query returns whether the molecule falls strictly under 10 nM in IC50. Query: Cc1cc2c(c(-c3cc(F)c4c(c3C)CCCO4)c1[C@H](OC(C)(C)C)C(=O)O)CCN2C(=O)c1cc(F)cc(F)c1 (atropisomer, axis not shown) [Example 57] class 1

is_below(IC50, 10 nM) for Cc1cc2c(c(-c3cc(F)c4c(c3C)CCCO4)c1[C@H](OC(C)(C)C)C(=O)O)CCN2C(=O)C1CCCC1 (atropisomer, axis not shown) [Example 54] ? class 0

Please determine if Cc1ccc(-c2c3c(cc(C)c2[C@H](OC(C)(C)C)C(=O)O)N(C(=O)c2ccc(C)cc2C)CC3)cc1 [Example 9] is below 10 nM in terms of IC50. class 0

Field: below-cutoff. Rule: recorded IC50 strictly less than 10 nM. Subject: COc1ccc(C(=O)N2CCc3c2cc(C)c([C@H](OC(C)(C)C)C(=O)O)c3-c2cc(C(F)(F)F)c3c(c2C)CCCO3)cc1C (atropisomer, axis not shown) [Example 196] class 0

In the record for COc1ccc(C(=O)N2CCc3c2cc(C)c([C@H](OC(C)(C)C)C(=O)O)c3-c2cc(F)c3c(c2C)CCCO3)c(OC)c1 (atropisomer, axis not shown) [Example 88] , is IC50 less than 10 nM? class 1

Quick check: IC50 of Cc1ccc(-c2c3c(cc(C)c2[C@H](OC(C)(C)C)C(=O)O)N(C(=O)c2ccc(F)cc2)CC3)cc1 [Example 14] under 10 nM? class 1

Hi there! Is IC50 for COc1ccc(C(=O)N2c3cc(C)c([C@H](OC(C)(C)C)C(=O)O)c(-c4cc(F)c5c(c4C)CCCO5)c3CC2(C)C)cc1C (atropisomer, axis not shown) [Example 206] below 10 nM, do you know? class 0

Determine whether this molecule shows IC50 lower than 10 nM (ties excluded): Cc1cc2c(c(-c3cc(F)c4c(c3C)CCCO4)c1[C@H](OC(C)(C)C)C(=O)O)CCN2C(=O)c1ccc(Cl)c(Cl)c1 (atropisomer, axis not shown) [Example 61] class 0

Decide: IC50 of Cc1cc2c(c(-c3cc(F)c4c(c3C)CCCO4)c1[C@H](OC(C)(C)C)C(=O)O)CCN2C(=O)c1cc(Cl)cc(Cl)c1 (atropisomer, axis not shown) [Example 82] strictly below 10 nM? class 0

Here's an entry: COc1cc(C(=O)N2CCc3c2cc(C)c([C@H](OC(C)(C)C)C(=O)O)c3-c2ccc3c(c2C)CCCO3)ccc1C (atropisomer, axis not shown) [Example 184] . Is its IC50 below 10 nM? class 1

is_below(IC50, 10 nM) for Cc1ccc(-c2c3c(cc(C)c2[C@H](OC(C)(C)C)C(=O)O)N(C(=O)c2cc(C)cc(F)c2)CC3)cc1 [Example 32] ? class 0

Problem: For the molecule CC(=O)Nc1cccc(C(=O)N2CCc3c2cc(C)c([C@H](OC(C)(C)C)C(=O)O)c3-c2cc(F)c3c(c2C)CCCO3)c1 (atropisomer, axis not shown) [Example 78] , is IC50 under 10 nM? class 0
